Provide the recorded ΔH for the entries that follow.
# TARGET_OF_ASSAY: Link_TSG6 (Homo sapiens, UniProt P98066)
# Construct: made in house
# Sequence (P98066 36-129 limits assumed): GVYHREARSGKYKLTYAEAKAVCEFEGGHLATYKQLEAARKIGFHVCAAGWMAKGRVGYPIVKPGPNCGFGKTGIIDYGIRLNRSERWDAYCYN
# PROTOCOL_SUMMARY: ITC of HA oligosaccharides binding to Link_TSG6
# EXPERIMENTAL_CONDITIONS: Table 1; ITC, 25 °C, 5 mM MES pH 6.0; mean ± SEM
Field: numeric (kcal/mol). Do not append units.

Prompt: Find the measured ΔH: item CC(=O)N[C@H]1[C@H](O[C@H]2[C@H](O)[C@@H](O)[C@H](O[C@H]3[C@H](O)[C@@H](CO)O[C@@H](O[C@H]4[C@H](O)[C@@H](O)[C@H](O[C@H]5[C@H](O)[C@@H](CO)OC(O)[C@@H]5NC(C)=O)O[C@@H]4C(=O)O)[C@@H]3NC(C)=O)O[C@@H]2C(=O)O)O[C@H](CO)[C@@H](O)[C@@H]1O[C@@H]1O[C@H](C(=O)O)[C@@H](O)[C@H](O)[C@H]1O (stereo partly drawn) [HA6^AN, reference compound] , target or system Link_TSG6 (Homo sapiens, UniProt P98066).
Response: -8.29

Prompt: Find the measured ΔH: item CC(=O)N[C@H]1[C@H](O[C@H]2[C@H](O)[C@@H](O)[C@H](O[C@H]3[C@H](O)[C@@H](CO)O[C@@H](O[C@H]4[C@H](O)[C@@H](O)[C@H](O[C@@H]([C@H](O)[C@H](O)CO)[C@H](CNc5ccc(C(=O)O)cc5)NC(C)=O)O[C@@H]4C(=O)O)[C@@H]3NC(C)=O)O[C@@H]2C(=O)O)O[C@H](CO)[C@@H](O)[C@@H]1O[C@@H]1O[C@H](C(=O)O)[C@@H](O)[C@H](O)[C@H]1O [HA6-4AA] , target or system Link_TSG6 (Homo sapiens, UniProt P98066).
Response: -7.57

Prompt: Find the measured ΔH: item CC(=O)N[C@H]1[C@H](O[C@H]2[C@H](O)[C@@H](O)[C@H](O[C@H]3[C@H](O)[C@@H](CO)O[C@@H](O[C@H]4[C@H](O)[C@@H](O)[C@H](O[C@@H]([C@H](O)[C@H](O)CO)[C@H](CNc5ccccc5C(=O)O)NC(C)=O)O[C@@H]4C(=O)O)[C@@H]3NC(C)=O)O[C@@H]2C(=O)O)O[C@H](CO)[C@@H](O)[C@@H]1O[C@@H]1O[C@H](C(=O)O)[C@@H](O)[C@H](O)[C@H]1O [HA6-2AA] , target or system Link_TSG6 (Homo sapiens, UniProt P98066).
Response: -7.84

====

# TARGET_OF_ASSAY: Link_TSG6 (Homo sapiens, UniProt P98066)
# Construct: made in house
# PROTOCOL_SUMMARY: ITC of HA oligosaccharides binding to Link_TSG6
# EXPERIMENTAL_CONDITIONS: Table 4; ITC, 25 °C, 5 mM MES pH 6.0; mean ± SEM, four titrations; read-out: KD
# Protocol: ITC experiments were performed using a MicroCal PEAQ-ITC instrument (Malvern Instruments). Oligosaccharide stock solutions were prepared at 0.29 mM (in 5 mM MES, pH 6.0) and injected (18 × 2 μl with 120 s spacing between injections) into the cell containing ∼200 μl Link_TSG6 (0.029 mM) in matched buffer at 25 °C. […] Each oligosaccharide was analyzed in four independently performed ITC experiments.
ENDPOINT_LABEL: pKd
On this scale, pKd is minus log10 of a concentration expressed in M (mol/L).

Prompt: # lookup: pKd of CC(=O)N[C@H]1[C@H](O[C@H]2[C@H](O)[C@@H](O)[C@H](O[C@H]3[C@H](O)[C@@H](CO)O[C@@H](O[C@H]4[C@H](O)[C@@H](O)[C@H](O[C@H]5[C@H](O)[C@@H](CO)O[C@@H](O[C@H]6[C@H](O)[C@@H](O)[C@H](O[C@@H]([C@H](O)[C@H](O)CO)[C@H](CNc7cccc8c7CCC8)NC(C)=O)O[C@@H]6C(=O)O)[C@@H]5NC(C)=O)O[C@@H]4C(=O)O)[C@@H]3NC(C)=O)O[C@@H]2C(=O)O)O[C@H](CO)[C@@H](O)[C@@H]1O[C@@H]1O[C@H](C(=O)O)[C@@H](O)[C@H](O)[C@H]1O
Response: 6.66

Prompt: # lookup: pKd of COc1ccc(C(=O)O)c(NC[C@H](NC(C)=O)[C@@H](O[C@@H]2O[C@H](C(=O)O)[C@@H](O[C@@H]3O[C@H](CO)[C@@H](O)[C@H](O[C@@H]4O[C@H](C(=O)O)[C@@H](O[C@@H]5O[C@H](CO)[C@@H](O)[C@H](O[C@@H]6O[C@H](C(=O)O)[C@@H](O[C@@H]7O[C@H](CO)[C@@H](O)[C@H](O[C@@H]8O[C@H](C(=O)O)[C@@H](O)[C@H](O)[C@H]8O)[C@H]7NC(C)=O)[C@H](O)[C@H]6O)[C@H]5NC(C)=O)[C@H](O)[C@H]4O)[C@H]3NC(C)=O)[C@H](O)[C@H]2O)[C@H](O)[C@H](O)CO)c1
Response: 5.84

Prompt: # lookup: pKd of CC(=O)N[C@H]1[C@H](O[C@H]2[C@H](O)[C@@H](O)[C@H](O[C@H]3[C@H](O)[C@@H](CO)O[C@@H](O[C@H]4[C@H](O)[C@@H](O)[C@H](O[C@H]5[C@H](O)[C@@H](CO)O[C@@H](O[C@H]6[C@H](O)[C@@H](O)[C@H](O[C@@H]([C@H](O)[C@H](O)CO)[C@H](CNc7ccc8c(c7)CCC8)NC(C)=O)O[C@@H]6C(=O)O)[C@@H]5NC(C)=O)O[C@@H]4C(=O)O)[C@@H]3NC(C)=O)O[C@@H]2C(=O)O)O[C@H](CO)[C@@H](O)[C@@H]1O[C@@H]1O[C@H](C(=O)O)[C@@H](O)[C@H](O)[C@H]1O
Response: 6.82

Prompt: # lookup: pKd of CC(=O)N[C@H]1[C@H](O[C@H]2[C@H](O)[C@@H](O)[C@H](O[C@H]3[C@H](O)[C@@H](CO)O[C@@H](O[C@H]4[C@H](O)[C@@H](O)[C@H](O[C@@H]([C@H](O)[C@H](O)CO)[C@H](CNc5ccc6c(c5)CCC6)NC(C)=O)O[C@@H]4C(=O)O)[C@@H]3NC(C)=O)O[C@@H]2C(=O)O)O[C@H](CO)[C@@H](O)[C@@H]1O[C@@H]1O[C@H](C(=O)O)[C@@H](O)[C@H](O)[C@H]1O
Response: 6.17

Prompt: # lookup: pKd of CC(=O)N[C@H]1[C@H](O[C@H]2[C@H](O)[C@@H](O)[C@H](O[C@H]3[C@H](O)[C@@H](CO)O[C@@H](O[C@H]4[C@H](O)[C@@H](O)[C@H](O[C@@H]([C@H](O)[C@H](O)CO)[C@H](CNc5cccc6c5CCC6)NC(C)=O)O[C@@H]4C(=O)O)[C@@H]3NC(C)=O)O[C@@H]2C(=O)O)O[C@H](CO)[C@@H](O)[C@@H]1O[C@@H]1O[C@H](C(=O)O)[C@@H](O)[C@H](O)[C@H]1O
Response: 5.85

Prompt: # lookup: pKd of CC(=O)N[C@H]1[C@H](O[C@H]2[C@H](O)[C@@H](O)[C@H](O[C@H]3[C@H](O)[C@@H](CO)O[C@@H](O[C@H]4[C@H](O)[C@@H](O)[C@H](O[C@@H]([C@H](O)[C@H](O)CO)[C@H](CNc5cc[nH]n5)NC(C)=O)O[C@@H]4C(=O)O)[C@@H]3NC(C)=O)O[C@@H]2C(=O)O)O[C@H](CO)[C@@H](O)[C@@H]1O[C@@H]1O[C@H](C(=O)O)[C@@H](O)[C@H](O)[C@H]1O
Response: 5.65
